experiment: binders of probe aHhip on microarray, primary screen, stem cell growth factor project, biochemical, small-molecule microarray, fluorescence 635/667 (AID 1087); conditions: higher = more signal;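 also: score merges spot fluorescence at 667nm with spot signal to noise ratio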
Catalogue of compounds with associated composite z-score
Just the number, please.

Reference set (6 entries):
COc1cc(NN2C(C(O)c3ccc(N(C)C)cc3)C=CC3C(=O)N(c4ccccc4)C(=O)C32)cc(OC)c1OC (configuration not stated): -0.0618
C#Cc1cc2ccccc2oc1=O: -0.14
C=CCNC(=O)[C@@H]1[C@H]2C(=O)O[C@H](c3ccccc3)[C@H](c3ccccc3)N2[C@H](c2ccc(OCCO)cc2)[C@@]12C(=O)N(C(=O)OCCOC)c1ccc(C#Cc3ccc(OC)cc3)cc12: -0.0955
CCCCCCCCCCC(O)C1C=CC2C(=O)N(c3ccccc3)C(=O)C2N1Nc1ccc(C#N)cc1 (configuration not stated): 0.0626
CC(C)C(O)C1C=CC2C(=O)N(c3ccccc3)C(=O)C2N1Nc1ccccc1 (configuration not stated): 0.158
C=CCC(OC(C)=O)[C@@H]1[C@@H](N(Cc2ccc(-c3cccc(C(F)(F)F)c3)o2)C(=O)c2ccc(-c3ccccc3)cc2)c2cc(OCCCO)ccc2N1C(=O)Cc1ccc2ccccc2c1 (some centres not stated): 0.0156

Please give the documented composite z-score of `C[N+](C)(C)CCCCCCNC(=O)[C@@H]1C[C@@H]2C(=O)N3CCC[C@H]3C(=O)N2[C@@H]1c1ccc(O)cc1`
0.21

# return recorded composite z-score for input CCCCN1CC=CC23O[C@@H]4/C=C\CCCOC(=O)C4[C@H]2C(=O)N(CCO)[C@@H]3C1=O (some centres not stated)
-0.271

# return recorded composite z-score for input `COCCOC(=O)N1C(=O)[C@@]2(c3cc(C#CCC(C(=O)OC)C(=O)OC)ccc31)[C@H](c1ccc(OCCO)cc1)N1[C@H](c3ccccc3)[C@H](c3ccccc3)OC(=O)[C@H]1[C@@H]2C(=O)N1CCc2cc(OC)c(OC)cc2C1`
-0.131

Kindly indicate its recorded composite z-score. Item: `CN(C)CCCCCCNC(=O)[C@@H]1C[C@@H]2C(=O)N3CCC[C@H]3C(=O)N2[C@@H]1c1cccc(OCCO)c1`
-0.0296

Name the recorded composite z-score of the item `CCOC(=O)C1=C[C@@H](C(C)(C)C)N(S(=O)(=O)c2ccc(C)cc2)[C@H]1c1cccc2ccccc12` in your answer.
-0.0296

# return recorded composite z-score for input `O=C1O[C@@H](c2ccccc2)[C@@H](c2ccccc2)N2[C@@H](c3ccc(O)cc3)[C@]3(C(=O)Nc4ccc(C#CCCO)cc43)[C@@H](C(=O)N3CCN(c4ncccn4)CC3)[C@H]12`
-1.27

For the compound `C=C(/C(=C/C[C@H](OC(=O)c1ccncc1)c1ccc(CO)o1)c1cnc2ccccc2c1)C(C)C` , give its reported composite z-score.
0.0373

Please indicate composite z-score recorded for `C=C[C@H](C)[C@H](OC(=O)Nc1ccc(SC)cc1)c1ccc(OCCO)cc1`
0.0972

Could you please provide reported composite z-score for [N-]=[N+]=NCc1ccccc1[C@H]1OC(c2ccc(OCCCO)cc2)=N[C@@]1(Cc1ccccc1N=[N+]=[N-])C(=O)NCC(O)CO (some centres not stated) ? Thanks!
-0.31

Provide measured composite z-score value, entry: `COc1ccccc1CN1C(=O)c2ccccc2[C@](Cc2ccccc2I)(C(=O)O)[C@@H]1c1ccc(CO)cc1`
0.305

Supply recorded composite z-score for `COCCOC(=O)N1C(=O)[C@@]2(c3cc(C#CC4(O)CCCCCC4)ccc31)[C@H](c1ccc(O)cc1)N1[C@H](c3ccccc3)[C@H](c3ccccc3)OC(=O)[C@H]1[C@@H]2C(=O)N1CCN(c2ncccn2)CC1` here.
0.132

meta.source: PubChem BioAssay
